# EC50 values compiled below
assayed_system: Ba/F3 stable cells (Homo sapiens, UniProt P00533, INS763FQEA, cells depend on it)
Construct: EC50 Ba/F3-EGFR A763-Y764insFQEA; other: Ba/F3-EGFR A763-Y764insFQEA cells, 72 h, CCK-8
Sequence (P00533 with tags, fused parts or gaps INS763FQEA): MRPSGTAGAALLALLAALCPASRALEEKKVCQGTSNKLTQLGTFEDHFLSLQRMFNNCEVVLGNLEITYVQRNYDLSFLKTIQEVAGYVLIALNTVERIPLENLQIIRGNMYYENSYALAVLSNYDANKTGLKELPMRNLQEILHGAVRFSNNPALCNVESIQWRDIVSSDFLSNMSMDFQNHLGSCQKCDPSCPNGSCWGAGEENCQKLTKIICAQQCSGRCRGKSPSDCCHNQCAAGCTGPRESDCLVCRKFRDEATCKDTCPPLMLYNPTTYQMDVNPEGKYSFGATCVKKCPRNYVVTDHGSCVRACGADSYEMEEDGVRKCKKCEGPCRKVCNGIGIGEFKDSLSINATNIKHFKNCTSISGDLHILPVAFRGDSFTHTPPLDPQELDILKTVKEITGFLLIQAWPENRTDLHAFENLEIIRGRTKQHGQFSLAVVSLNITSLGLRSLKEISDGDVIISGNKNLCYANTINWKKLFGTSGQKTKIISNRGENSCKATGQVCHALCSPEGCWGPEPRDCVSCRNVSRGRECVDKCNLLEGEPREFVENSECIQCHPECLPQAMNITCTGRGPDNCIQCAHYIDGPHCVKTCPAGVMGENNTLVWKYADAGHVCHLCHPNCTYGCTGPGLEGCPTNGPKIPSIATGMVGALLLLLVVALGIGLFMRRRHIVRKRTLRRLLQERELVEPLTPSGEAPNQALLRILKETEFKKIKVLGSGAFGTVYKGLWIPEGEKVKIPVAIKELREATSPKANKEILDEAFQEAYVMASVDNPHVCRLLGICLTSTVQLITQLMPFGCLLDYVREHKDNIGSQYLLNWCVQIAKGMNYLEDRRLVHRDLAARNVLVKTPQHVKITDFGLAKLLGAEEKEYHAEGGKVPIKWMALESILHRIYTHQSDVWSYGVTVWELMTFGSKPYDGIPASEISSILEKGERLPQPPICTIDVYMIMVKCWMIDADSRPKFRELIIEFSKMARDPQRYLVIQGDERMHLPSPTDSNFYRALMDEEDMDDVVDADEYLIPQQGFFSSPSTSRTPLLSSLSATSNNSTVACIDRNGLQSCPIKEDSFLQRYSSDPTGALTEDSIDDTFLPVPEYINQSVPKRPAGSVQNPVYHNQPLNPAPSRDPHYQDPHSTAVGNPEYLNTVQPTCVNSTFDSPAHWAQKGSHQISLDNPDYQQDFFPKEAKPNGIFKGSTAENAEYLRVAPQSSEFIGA
assay_notes: EC50 assay: Ba/F3 stable cell proliferation (CCK-8, 72 h)
settings: Ba/F3-EGFR A763-Y764insFQEA cells
Counter-ions that a name gives are not always drawn.

INSERT INTO assay_data (compound, assayed_system, recorded_value) VALUES
  ('C=C(F)C(=O)N1CCC(Oc2cc3c(Nc4ccc(Cl)c(Cl)c4F)ncnc3cc2OC)CC1', 'Ba/F3 stable cells (Homo sapiens, UniProt P00533, INS763FQEA, cells depend on it)', '≤ 200 nM'),
  ('C=CC(=O)N1CCC(Oc2cc3c(NC(C(N)=O)c4cccc(Cl)c4)ncnc3cc2OC)CC1 (stereo not shown)', 'Ba/F3 stable cells (Homo sapiens, UniProt P00533, INS763FQEA, cells depend on it)', '≤ 200 nM'),
  ('C=CC(=O)N1CCC(Oc2cc3c(Nc4ccc5cnn(C)c5c4)ncnc3cc2OC)CC1', 'Ba/F3 stable cells (Homo sapiens, UniProt P00533, INS763FQEA, cells depend on it)', '≤ 200 nM'),
  ('C=CC(=O)N1CCC(Oc2cc3c(Nc4cccc5ccccc45)ncnc3cc2OC)CC1', 'Ba/F3 stable cells (Homo sapiens, UniProt P00533, INS763FQEA, cells depend on it)', '≤ 200 nM'),
  ('C=CC(=O)N1CCC(Oc2cc3c(NCc4cc(Cl)cc(Cl)c4)ncnc3cc2OC)CC1', 'Ba/F3 stable cells (Homo sapiens, UniProt P00533, INS763FQEA, cells depend on it)', '200 to 1000 nM'),
  ('C=CC(=O)N1CCC(Oc2cc3c(N4CCN(c5cccc(Cl)c5)CC4)ncnc3cc2OC)CC1', 'Ba/F3 stable cells (Homo sapiens, UniProt P00533, INS763FQEA, cells depend on it)', '> 1000 nM');

Task: If you can, please state the reported EC50 value of COc1cc2ncnc(Nc3ccc(Cl)c(Cl)c3F)c2c([N+](=O)[O-])c1OC1CCNCC1 [Compound 207, hydrochloride] .
Result: ≤ 200 nM

Task: What about this compound? C=CC(=O)N1CCC(Oc2cc3c(NCc4cccc(F)c4)ncnc3cc2OC)CC1
Result: ≤ 200 nM

Task: What about this compound? C=CC(=O)N1CCC(Oc2cc3c(NCc4cccc(C#N)c4)ncnc3cc2OC)CC1
Result: ≤ 200 nM

Task: What about this compound? C=CC(=O)N1CCC(Oc2cc3c(Nc4ccc5c(c4)CCN5S(C)(=O)=O)ncnc3cc2OC)CC1
Result: 200 to 1000 nM
